MEASURED_ENDPOINT: logP
Give bare numbers.

These solved cases illustrate the format of a correct answer.
Query: # query: logP of entry "N#C/N=[N+](\[O-])c1cccc([N+](=O)[O-])c1"
Reply: 1.45

Query: # query: logP of entry "CN(C)c1ccc(/[N+]([O-])=N/C#N)cc1"
Reply: 2.3

Query: Data request, read-out logP, for "N#C/N=[N+](\[O-])c1cccc(Br)c1"
Reply: 2.56

Query: I would be grateful if you could share the reported logP for "N#CN=[N+]([O-])c1ccc(C(F)(F)F)cc1" .
Reply: 2.47

Query: Which value of logP has been reported for "Cc1cccc([N+]([O-])=NC#N)c1" in the records?
Reply: 2.49

Query: Please give the measured logP for this molecule: "N#CN=[N+]([O-])c1cccc(C(F)(F)F)c1"
Reply: 2.52

Query: What value of logP has been reported for the following molecule? "N#CN=[N+]([O-])c1ccc(Cl)cc1"
Reply: 2.33

Query: Which logP is listed for "N#C/N=[N+](\[O-])c1cccc(Cl)c1" ?
Reply: 2.4

Query: Entry under review: "COc1cccc(/[N+]([O-])=N/C#N)c1" . Reported logP?
Reply: 2.24

For the next question, use this molecule.
Query: Query (molecule): "COc1ccc(/[N+]([O-])=N/C#N)cc1" ; field requested: logP
Reply: 2.15
